Target: CXCR7 (Homo sapiens, UniProt P25106)
Sequence (P25106 whole entry): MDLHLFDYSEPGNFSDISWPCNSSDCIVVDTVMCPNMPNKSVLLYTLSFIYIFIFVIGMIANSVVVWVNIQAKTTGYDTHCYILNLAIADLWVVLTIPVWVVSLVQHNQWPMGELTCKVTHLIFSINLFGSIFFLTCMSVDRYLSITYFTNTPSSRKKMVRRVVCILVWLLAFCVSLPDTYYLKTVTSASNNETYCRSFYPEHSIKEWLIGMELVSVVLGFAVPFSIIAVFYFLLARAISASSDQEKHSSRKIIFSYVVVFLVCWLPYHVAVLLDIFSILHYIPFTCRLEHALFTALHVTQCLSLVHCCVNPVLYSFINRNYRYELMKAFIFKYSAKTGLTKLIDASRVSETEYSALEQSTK
Sequence (P32121 whole entry partner): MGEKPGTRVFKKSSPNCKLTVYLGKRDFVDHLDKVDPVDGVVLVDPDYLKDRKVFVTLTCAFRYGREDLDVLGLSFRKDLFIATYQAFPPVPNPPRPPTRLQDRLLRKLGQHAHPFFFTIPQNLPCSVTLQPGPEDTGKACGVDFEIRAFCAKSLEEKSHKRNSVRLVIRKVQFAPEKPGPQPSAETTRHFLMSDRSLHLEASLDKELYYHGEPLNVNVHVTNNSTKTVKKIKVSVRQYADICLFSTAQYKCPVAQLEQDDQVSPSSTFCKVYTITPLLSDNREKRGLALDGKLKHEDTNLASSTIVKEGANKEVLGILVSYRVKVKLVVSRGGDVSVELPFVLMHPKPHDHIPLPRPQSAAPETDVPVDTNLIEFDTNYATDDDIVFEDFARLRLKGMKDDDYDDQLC
Assay: PathHunter CHO-K1 CXCR7 b-arrestin recruitment assay (CXCR7 agonistic activity)
Details: PathHunter CHO-K1 CXCR7 b-arrestin cell line
measurement-label: EC50 (nM)
Enter your answer as a number in nM; do not include the unit.

# example entries with known answers
[[record]]
compound = "COCCN1CCc2c(/C=C/C(=O)N(CCN(C)C)Cc3ncccc3C(F)(F)F)cccc2C1 [Example 318]"
assayed_system = "CXCR7 (Homo sapiens, UniProt P25106)"
unit_string = "nM"
observed_value = 7

[[record]]
compound = "Cc1cc(CN(CCN(C)C)C(=O)CNc2cccc3c2CCN(CC2CC2)C3)no1 [Example 269]"
assayed_system = "CXCR7 (Homo sapiens, UniProt P25106)"
unit_string = "nM"
observed_value = 54

[[record]]
compound = "CCN1CCc2cccc(NCC(=O)N(Cc3nc(C)cs3)Cc3ccccc3C(F)(F)F)c2C1 [compound 520]"
assayed_system = "CXCR7 (Homo sapiens, UniProt P25106)"
unit_string = "nM"
observed_value = 188


Quickly give me recorded EC50 for CCN1CCc2c(cccc2N(CC)CC(=O)N(CCN(C)C)Cc2ccccc2)C1 [Example 102]
370

Quickly give me recorded EC50 for O=C(CNc1cccc2c1CCN(CC1CC1)C2)N(CCN1CCCC1)Cc1ccc(F)cc1F [Example 51]
3

Quickly give me recorded EC50 for COCCN1CCc2c(CCC(=O)N(CCN(C)C)Cc3ncccc3C(F)(F)F)cccc2C1 [Example 336]
47

Quickly give me recorded EC50 for CCC(=O)N1CCc2cccc(NCC(=O)N(CCN(C)C)Cc3ccccc3C(F)(F)F)c2C1 [compound 559]
13

Quickly give me recorded EC50 for Cc1ccccc1CCN(CCN(C)C)C(=O)CNc1cccc2c1CCN(CC1CC1)C2 [Example 40]
44

Quickly give me recorded EC50 for CCn1ccc(C(C)N(Cc2ccccc2C(F)(F)F)C(=O)CNc2cccc3c2CCN(CC2CC2)C3)n1 (racemic) [Example 80]
47

Quickly give me recorded EC50 for CC(C)(C)OC(=O)N1CCc2c(/C=C/C(=O)N(Cc3ccccc3)C3CCS(=O)(=O)C3)cccc2C1 (stereo not shown) [Example 95]
432
